Experiment: Cytotoxicity assay in Vero cells
Format: cell-based
Details: African green monkey, Table 2, read-out: Cytotoxicity in different cells (IC50, μM) Vero
Provide the reported IC50 of each item.

Param item = Cc1ccc(C(=O)Nc2nc(=O)n([C@H]3C=C[C@@H](CO)O3)cc2F)cc1 ; retrieve measured IC50.
> 100 µM

Requested field: IC50. Item: O=C(Nc1nc(=O)n([C@H]2C=C[C@@H](CO)O2)cc1F)c1cccc([N+](=O)[O-])c1
> 100 µM

Which IC50 reading was recorded for the compound O=C(Nc1nc(=O)n([C@H]2C=C[C@@H](CO)O2)cc1F)C1CCCCC1 ?
> 100 µM

---

Assay: Cytotoxicity assay in HepG2 cells
Format: cell-based
Conditions: human, Table 1, read-out: Cytotoxicity in different cells (IC50, μM) HepG2
Readout type: IC50

# lookup: IC50 of O=C(Nc1nc(=O)n([C@H]2CC[C@@H](CO)O2)cc1F)c1cccc(Cl)c1 [Compound 15]
> 100 µM

Can you share its IC50? I mean this compound: O=C(Nc1nc(=O)n([C@H]2CC[C@@H](CO)O2)cc1F)c1ccc(Cl)cc1 [Compound 12]
7.3 µM

Which IC50 reading was recorded for the compound O=C(Nc1nc(=O)n([C@H]2CC[C@@H](CO)O2)cc1F)c1ccc(Br)cc1 [Compound 13] ?
> 100 µM

Which value of IC50 has been reported for O=C(Nc1nc(=O)n([C@H]2CC[C@@H](CO)O2)cc1F)c1cc2ccccc2s1 [Compound 32] in the records?
1.3 µM

Requested field: IC50. Item: O=C(Nc1nc(=O)n([C@H]2CC[C@@H](CO)O2)cc1F)c1cccc(Br)c1 [Compound 16]
> 100 µM

Query: IC50; subject: CCCc1ccc(C(=O)Nc2nc(=O)n([C@H]3CC[C@@H](CO)O3)cc2F)cc1 [Compound 26]
> 100 µM

What value of measured IC50 is listed for O=C(Nc1nc(=O)n([C@H]2CC[C@@H](CO)O2)cc1F)c1ccc(F)cc1 [Compound 11] ?
> 100 µM

---

Assay: Cytotoxicity assay in CEM cells
Format: cell-based, human
Conditions: human, CEM lymphoblastoid cells, Table 1, read-out: Cytotoxicity in different cells (IC50, μM) CEM
Readout type: IC50 (µM)
Give the quantity in µM, number only.

Record request: IC50 value, item O=C(Nc1nc(=O)n([C@H]2CC[C@@H](CO)O2)cc1F)c1cccc(Cl)c1
68.1

Name the reported IC50 value associated with the molecule O=C(Nc1nc(=O)n([C@H]2CC[C@@H](CO)O2)cc1F)c1ccc(Br)cc1
31.6

I would be grateful if you could share the reported IC50 for O=C(Nc1nc(=O)n([C@H]2CC[C@@H](CO)O2)cc1F)c1cccc(Br)c1 .
40.6

Tell me the measured IC50 of O=C(Nc1nc(=O)n([C@H]2CC[C@@H](CO)O2)cc1F)c1ccc(Cl)cc1 , please.
33.4

---

Test system: HepG2 cells
Assay: Cytotoxicity assay in HepG2 cells
Format: cell-based
Settings: Table 1, read-out: Cytotoxicity in different cells (IC50, μM) HepG2
Readout type: IC50 (µM)
# number only, unit µM dropped from output

Any idea what IC50 was measured for O=C(Nc1nc(=O)n([C@H]2CC[C@@H](CO)O2)cc1F)c1cccnc1 ?
19.4

Could you tell me which IC50 is on file for COc1ccc(C(=O)Nc2nc(=O)n([C@H]3CC[C@@H](CO)O3)cc2F)cc1 ?
4.5

Consider the compound shown here: CC(C)(C)c1ccc(C(=O)Nc2nc(=O)n([C@H]3CC[C@@H](CO)O3)cc2F)cc1 What is its recorded IC50?
21.3

Entry O=C(Nc1nc(=O)n([C@H]2CC[C@@H](CO)O2)cc1F)c1ccccc1 : reported IC50 = ?
15.3

Reported IC50, compound CCCC(=O)Nc1nc(=O)n([C@H]2CC[C@@H](CO)O2)cc1F : ____
7.6

---

Test system: HIV-1RF
Assay: Anti-HIV (in MT-2 cells) assay, viral RNA accumulation
Type: cell-based
Settings: Table 2; EC90; MT-2 cells; read-out: Anti-HIV-1 activity in different cells (EC90, μM) MT-2
Readout type: EC90

Please look up its EC90: Cc1ccccc1C(=O)Nc1nc(=O)n([C@H]2C=C[C@@H](CO)O2)cc1F
> 50 µM

Which EC90 value belongs to COc1ccccc1C(=O)Nc1nc(=O)n([C@H]2C=C[C@@H](CO)O2)cc1F ?
> 50 µM

For the molecule O=C(Nc1nc(=O)n([C@H]2C=C[C@@H](CO)O2)cc1F)c1ccccc1[N+](=O)[O-] , what EC90 is on record?
> 50 µM
